Listing: IC50 of selected compounds
# studySystem: human recombinant norepinephrine (NE) uptake site (Homo sapiens)
# Construct: expressed in transfected cells
# Sequence (P23975 whole entry): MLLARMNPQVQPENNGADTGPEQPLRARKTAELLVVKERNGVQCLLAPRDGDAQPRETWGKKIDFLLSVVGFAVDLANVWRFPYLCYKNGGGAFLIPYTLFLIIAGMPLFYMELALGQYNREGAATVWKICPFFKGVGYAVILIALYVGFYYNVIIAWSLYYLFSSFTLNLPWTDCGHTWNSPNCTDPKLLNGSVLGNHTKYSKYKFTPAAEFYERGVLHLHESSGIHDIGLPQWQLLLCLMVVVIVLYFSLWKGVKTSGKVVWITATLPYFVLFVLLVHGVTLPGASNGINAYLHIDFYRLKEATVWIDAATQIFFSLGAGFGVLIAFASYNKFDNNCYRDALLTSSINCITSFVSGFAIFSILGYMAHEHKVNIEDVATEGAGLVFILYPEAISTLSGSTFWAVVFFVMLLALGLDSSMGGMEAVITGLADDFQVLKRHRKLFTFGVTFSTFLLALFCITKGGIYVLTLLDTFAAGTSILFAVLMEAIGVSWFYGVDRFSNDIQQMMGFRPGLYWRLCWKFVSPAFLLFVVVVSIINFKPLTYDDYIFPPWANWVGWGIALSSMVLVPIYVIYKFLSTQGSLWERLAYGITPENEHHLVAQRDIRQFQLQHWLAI
# assay: Binding at the norepinephrine (NE) uptake site
Provide only the numeric value, understood in nM.

compound	IC50, nM
CC(C)C[C@H](N)C1(c2ccc(Cl)cc2)CCC1 [(S)-DDMS]	6.2

Quick note, IC50 for CC(C)C[C@@H](N)C1(c2ccc(Cl)cc2)CCC1 [(R)-DDMS] landed at 13
